The reported measurements were obtained from the supplement of paper PMC8728848.

TARGET ENTITY: GlcNAc(b1-3)Gal(b1-4)GlcNAc(b1-3)Gal(b1-4)GlcNAc(b1-2)Man(a1-3)[GlcNAc(b1-3)Gal(b1-4)GlcNAc(b1-3)Gal(b1-4)GlcNAc(b1-2)Man(a1-6)]Man(b1-4)GlcNAc(b1-4)[Fuc(a1-6)]GlcNAc
PROTOCOL: glycan array binding signal (z-score within array); higher = stronger binding
PROTOCOL CONDITIONS: glycan notation: IUPAC condensed, linker removed
This is one part of a sample in which the strongest signals are shown more often than they occur.
Entries and their measured glycan array binding signal (z-score) follow.
Hey, just send me the number, nothing else.

BINDER	glycan array binding signal (z-score)
Langerin K313I (Homo sapiens), Q9UJ71 (protein) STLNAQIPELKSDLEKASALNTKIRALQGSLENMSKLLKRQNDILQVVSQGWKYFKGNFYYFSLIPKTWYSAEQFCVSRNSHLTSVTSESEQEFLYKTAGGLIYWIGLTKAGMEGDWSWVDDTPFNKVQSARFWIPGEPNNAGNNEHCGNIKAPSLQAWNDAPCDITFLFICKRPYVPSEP	3.2
HPA (Helix pomatia), Q575S3 (protein) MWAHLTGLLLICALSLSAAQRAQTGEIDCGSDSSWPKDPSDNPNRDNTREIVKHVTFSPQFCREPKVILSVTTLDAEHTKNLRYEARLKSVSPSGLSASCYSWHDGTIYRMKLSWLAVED	-0.243
SBD-G4S3-Fc (protein) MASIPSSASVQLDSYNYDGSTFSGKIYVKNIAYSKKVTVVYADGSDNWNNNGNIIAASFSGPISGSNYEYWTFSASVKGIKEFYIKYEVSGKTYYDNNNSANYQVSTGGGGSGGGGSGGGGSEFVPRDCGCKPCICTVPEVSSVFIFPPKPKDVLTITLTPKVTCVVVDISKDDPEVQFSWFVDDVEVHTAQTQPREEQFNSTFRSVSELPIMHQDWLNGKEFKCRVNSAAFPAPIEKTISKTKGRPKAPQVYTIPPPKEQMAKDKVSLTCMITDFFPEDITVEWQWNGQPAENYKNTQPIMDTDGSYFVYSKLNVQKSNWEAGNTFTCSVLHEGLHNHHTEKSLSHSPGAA	1.28
APVPVTKLVCDGDTYKCTAYLDFGDGRWVAQWDTNVFHTG [PhoSpL (Pholiota squarrosa)]	1.44
ERGIC1-EDTA (Homo sapiens), Q969X5 (protein) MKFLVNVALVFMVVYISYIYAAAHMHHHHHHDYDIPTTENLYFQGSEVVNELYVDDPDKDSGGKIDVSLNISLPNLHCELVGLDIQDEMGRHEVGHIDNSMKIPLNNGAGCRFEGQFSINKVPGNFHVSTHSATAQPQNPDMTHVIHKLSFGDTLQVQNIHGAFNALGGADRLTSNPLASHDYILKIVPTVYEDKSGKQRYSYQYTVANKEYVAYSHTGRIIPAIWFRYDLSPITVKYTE	0.799

Name the recorded glycan array binding signal (z-score) of the binder listed here: CrataBL (Crataeva tapia), C0HJA4 (protein) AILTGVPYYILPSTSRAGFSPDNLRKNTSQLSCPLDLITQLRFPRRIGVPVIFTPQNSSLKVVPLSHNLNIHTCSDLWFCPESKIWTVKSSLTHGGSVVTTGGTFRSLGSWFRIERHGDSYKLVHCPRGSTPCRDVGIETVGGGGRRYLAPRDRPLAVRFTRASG
-0.076
